Provenance of the data: patent US20230111853A1

Test system: IKZF1, ASS1 and SALL4 recruitment to CRBN
Test: Recruitment assessment: recruitment of any tested substrate from among IKZF1, ASS1 and SALL4
Assay type: cell-based
Conditions: any tested substrate at any tested compound concentration
assay_metric: Recruitment Assessment

Example entries begin here.
Observed Recruitment Assessment on IKZF1, ASS1 and SALL4 recruitment to CRBN for Cc1cc(Nc2ccc3c(c2)C(=O)N(C2CCC(=O)NC2=O)C3)ncn1 (centres unmarked) [C80384] , please. FALSE

Observed Recruitment Assessment on IKZF1, ASS1 and SALL4 recruitment to CRBN for O=C(O)CNc1cccc2c1CN(C1CCC(=O)NC1=O)C2=O (centres unmarked) , please. FALSE

Observed Recruitment Assessment on IKZF1, ASS1 and SALL4 recruitment to CRBN for CS(=O)(=O)Nc1cccc2c1CN(C1CCC(=O)NC1=O)C2=O (centres unmarked) [C22548] , please. TRUE

Observed Recruitment Assessment on IKZF1, ASS1 and SALL4 recruitment to CRBN for CCOC(=O)Nc1cccc2c1CN(C1CCC(=O)NC1=O)C2=O (centres unmarked) [C22622] , please. TRUE

# context switch: different molecule, same Recruitment Assessment
Observed Recruitment Assessment on IKZF1, ASS1 and SALL4 recruitment to CRBN for O=C1CC=CC(C(=O)NC2CCC(=O)NC2=O)=N1 (centres unmarked) [C98696] , please. FALSE

----------
Tested on: IKZF1, ASS1 and SALL4 recruitment to CRBN
Test: Recruitment assessment: recruitment of any tested substrate from among IKZF1, ASS1 and SALL4
Assay type: cell-based
Conditions: any tested substrate at any tested compound concentration
assay_metric: Recruitment Assessment

Example entries begin here.
Observed Recruitment Assessment on IKZF1, ASS1 and SALL4 recruitment to CRBN for O=C(O)CN1CCN(Cc2ccc(COc3cccc4c3CN(C3CCC(=O)NC3=O)C4=O)cc2)CC1.O=CO (stereo not shown) [ZE26-0001] , please. TRUE

Observed Recruitment Assessment on IKZF1, ASS1 and SALL4 recruitment to CRBN for O=C1CCC(N2Cc3ccccc3C2)C(=O)N1 (stereo not shown) [C87699, 3-isoindolin-2-ylpiperidine-2.6-dione] , please. TRUE

Observed Recruitment Assessment on IKZF1, ASS1 and SALL4 recruitment to CRBN for Nc1cccc2c1CN(C1CNC(=O)NC1=O)C2=O (stereo not shown) [C47928] , please. FALSE

Observed Recruitment Assessment on IKZF1, ASS1 and SALL4 recruitment to CRBN for O=C1CCC(N2Cc3cccc(F)c3C2=O)C(=O)N1 (stereo not shown) [C23066] , please. TRUE

Observed Recruitment Assessment on IKZF1, ASS1 and SALL4 recruitment to CRBN for O=C(CNc1ccc2c(c1)CN(C1CCC(=O)NC1=O)C2=O)NCc1ccccc1 (stereo not shown) [C35856] , please. TRUE

Observed Recruitment Assessment on IKZF1, ASS1 and SALL4 recruitment to CRBN for O=C1CCC(N2Cc3ccc(Nc4cnc5ccccc5n4)cc3C2=O)C(=O)N1 (stereo not shown) [C80386] , please. FALSE

# context switch: different molecule, same Recruitment Assessment
Observed Recruitment Assessment on IKZF1, ASS1 and SALL4 recruitment to CRBN for O=C1CCC(N2Cc3cc(NCCNC(=O)Nc4ccccc4)ccc3C2=O)C(=O)N1 (stereo not shown) [C35751] , please. TRUE

----------
Molecular target: ASS1 recruitment to CRBN (Homo sapiens, UniProt Q96SW2)
Construct: Full size proteins were fused for each of the target proteins tested, except in the case of IKZF1 where isoform 7 was used
Sequence (Q96SW2 whole entry, the tested form may be a part, canonical isoform): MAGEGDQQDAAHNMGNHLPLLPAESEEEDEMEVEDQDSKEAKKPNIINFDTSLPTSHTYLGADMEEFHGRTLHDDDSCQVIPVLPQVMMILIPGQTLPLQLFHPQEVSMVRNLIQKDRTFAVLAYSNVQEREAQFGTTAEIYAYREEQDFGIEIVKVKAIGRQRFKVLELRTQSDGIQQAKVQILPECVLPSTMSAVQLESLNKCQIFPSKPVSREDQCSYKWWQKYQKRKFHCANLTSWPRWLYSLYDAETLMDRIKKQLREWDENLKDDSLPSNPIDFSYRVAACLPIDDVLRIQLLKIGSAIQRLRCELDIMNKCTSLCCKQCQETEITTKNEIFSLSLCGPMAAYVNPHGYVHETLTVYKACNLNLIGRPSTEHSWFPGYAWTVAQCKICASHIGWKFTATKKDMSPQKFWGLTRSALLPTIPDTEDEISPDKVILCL
Sequence (P00966 whole entry partner, the tested form may be a part, canonical isoform): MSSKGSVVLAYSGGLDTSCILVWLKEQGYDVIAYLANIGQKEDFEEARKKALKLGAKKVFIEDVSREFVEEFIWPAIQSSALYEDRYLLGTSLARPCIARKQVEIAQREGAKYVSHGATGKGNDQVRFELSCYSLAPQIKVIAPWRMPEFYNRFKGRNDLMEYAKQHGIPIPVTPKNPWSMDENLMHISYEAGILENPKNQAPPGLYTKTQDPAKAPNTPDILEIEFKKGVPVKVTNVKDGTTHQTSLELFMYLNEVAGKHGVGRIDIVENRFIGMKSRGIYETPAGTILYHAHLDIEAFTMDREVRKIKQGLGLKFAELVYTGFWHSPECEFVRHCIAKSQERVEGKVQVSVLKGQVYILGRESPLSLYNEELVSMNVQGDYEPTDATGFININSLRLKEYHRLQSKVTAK
Sequence (Q16531 whole entry partner, the tested form may be a part, canonical isoform): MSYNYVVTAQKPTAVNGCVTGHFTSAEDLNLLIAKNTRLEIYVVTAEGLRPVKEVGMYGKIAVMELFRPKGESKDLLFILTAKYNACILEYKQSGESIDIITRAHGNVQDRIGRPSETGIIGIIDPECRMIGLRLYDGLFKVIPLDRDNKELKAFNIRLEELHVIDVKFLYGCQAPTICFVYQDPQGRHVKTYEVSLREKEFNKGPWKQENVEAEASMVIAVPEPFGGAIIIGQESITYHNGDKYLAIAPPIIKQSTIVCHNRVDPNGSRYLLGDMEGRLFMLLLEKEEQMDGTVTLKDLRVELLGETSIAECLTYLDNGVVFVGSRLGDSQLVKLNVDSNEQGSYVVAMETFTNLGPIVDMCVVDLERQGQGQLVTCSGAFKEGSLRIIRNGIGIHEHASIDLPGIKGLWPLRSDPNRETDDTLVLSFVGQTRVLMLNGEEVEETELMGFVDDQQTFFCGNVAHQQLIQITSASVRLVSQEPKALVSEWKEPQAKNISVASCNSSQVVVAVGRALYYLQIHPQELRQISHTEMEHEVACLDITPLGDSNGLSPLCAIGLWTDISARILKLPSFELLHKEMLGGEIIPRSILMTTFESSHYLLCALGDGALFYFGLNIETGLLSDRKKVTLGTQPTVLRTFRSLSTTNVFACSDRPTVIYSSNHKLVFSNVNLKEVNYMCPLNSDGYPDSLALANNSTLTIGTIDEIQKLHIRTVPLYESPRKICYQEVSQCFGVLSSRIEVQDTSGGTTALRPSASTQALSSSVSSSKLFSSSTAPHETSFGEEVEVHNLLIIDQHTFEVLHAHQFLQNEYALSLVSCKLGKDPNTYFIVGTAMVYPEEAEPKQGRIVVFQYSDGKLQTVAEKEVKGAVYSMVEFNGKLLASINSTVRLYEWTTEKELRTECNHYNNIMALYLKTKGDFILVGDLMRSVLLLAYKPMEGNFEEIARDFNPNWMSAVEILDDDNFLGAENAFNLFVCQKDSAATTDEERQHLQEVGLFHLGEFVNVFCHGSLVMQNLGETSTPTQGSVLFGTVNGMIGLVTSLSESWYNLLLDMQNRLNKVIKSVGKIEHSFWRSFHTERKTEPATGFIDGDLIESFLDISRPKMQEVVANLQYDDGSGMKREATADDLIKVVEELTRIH
Assay: Recruitment Assay (MAPPIT-like): ASS1 recruitment to CRBN
Conditions: HEK293T cells; pSEL-CRBN+pMG1-ASS1; luciferase 24 hours after treatment; read-out: EC50_ASS1
assay_metric: log10(EC50) (log10 of the value in nM)
Annotation: log10 of EC50, nM basis.

I have this compound here, Cc1cccc2c(=O)n(C3CCC(=O)NC3=O)nnc12 (stereo not shown) [C35830] , and I need its recorded log10(EC50). 3.75

More entries:
I have this compound here, N#Cc1ccc(Nc2ccc3c(c2)CN(C2CCC(=O)NC2=O)C3=O)nn1 (stereo not shown) [C80378] , and I need its recorded log10(EC50). 3.97

I have this compound here, Cc1ccc(NC(=O)NCc2ccc3c(c2)CN(C2CCC(=O)NC2=O)C3=O)cc1Cl (stereo not shown) [CC-885, reference compound] , and I need its recorded log10(EC50). 1.90

I have this compound here, O=C1CCC(N2Cc3cc(NCCNC(=O)Nc4ccccc4)ccc3C2=O)C(=O)N1 (stereo not shown) [C35751] , and I need its recorded log10(EC50). 3.16

I have this compound here, Cc1ccc2c(c1)CN(C1CCC(=O)NC1=O)C2=O (stereo not shown) [C28577] , and I need its recorded log10(EC50). 2.81

I have this compound here, CC1c2ccccc2C(=O)N1C1CCC(=O)NC1=O (stereo not shown) [C51383] , and I need its recorded log10(EC50). 3.23

I have this compound here, Nc1cccc2nnn(C3CCC(=O)NC3=O)c(=O)c12 (stereo not shown) [C59904] , and I need its recorded log10(EC50). 2.84

I have this compound here, Cc1cccc2c1CN(C1CCC(=O)NC1=O)C2=O (stereo not shown) [C28558] , and I need its recorded log10(EC50). 2.57

I have this compound here, O=C1CCC(N2Cc3cc(Nc4ncccn4)ccc3C2=O)C(=O)N1 (stereo not shown) [C80369] , and I need its recorded log10(EC50). 3.11

I have this compound here, O=C1CCC(N2Cc3c(ccc4c3OCO4)C2=O)C(=O)N1 (stereo not shown) [C67858] , and I need its recorded log10(EC50). 2.95

----------
Test system: IKZF1, ASS1 and SALL4 recruitment to CRBN
Experiment: Recruitment assessment: recruitment of any tested substrate from among IKZF1, ASS1 and SALL4
Format: cell-based
Settings: any tested substrate at any tested compound concentration
assay_metric: Recruitment Assessment

Example entries begin here.
I have this compound here, Cn1ncc2c(Nc3ccc4c(c3)CN(C3CCC(=O)NC3=O)C4=O)ncnc21 (stereo not drawn) , and I need its recorded Recruitment Assessment. TRUE

I have this compound here, Cc1ccc(NC(=O)NCc2ccc3c(c2)CN(C2CCC(=O)NC2=O)C3=O)cc1Cl (stereo not drawn) [CC-885, reference compound] , and I need its recorded Recruitment Assessment. TRUE

I have this compound here, CC1CCCCN1C(=O)CNc1ccc2c(c1)C(=O)N(C1CCC(=O)NC1=O)C2 (stereo not drawn) , and I need its recorded Recruitment Assessment. FALSE

I have this compound here, O=C1CC/C(=C/c2ccccc2)C(=O)N1 [C68121, (3Z)-3-benzylidenepiperidine-2,6-dione] , and I need its recorded Recruitment Assessment. FALSE

I have this compound here, CC(Nc1ccc2c(c1)C(=O)N(C1CCC(=O)NC1=O)C2)C(=O)O (stereo not drawn) , and I need its recorded Recruitment Assessment. TRUE

More entries:
I have this compound here, CC1c2ccccc2C(=O)N1C1CCC(=O)NC1=O (stereo not drawn) , and I need its recorded Recruitment Assessment. TRUE

I have this compound here, O=C1CCC(N2Cc3ccc(NCC(=O)NC4CCOC4)cc3C2=O)C(=O)N1 (stereo not drawn) , and I need its recorded Recruitment Assessment. TRUE

I have this compound here, Nc1cccc2c1CN(C1CCS(=O)(=O)NC1=O)C2=O (stereo not drawn) , and I need its recorded Recruitment Assessment. FALSE

I have this compound here, CN(C)C1c2ccccc2C(=O)N1C1CCC(=O)NC1=O (stereo not drawn) , and I need its recorded Recruitment Assessment. TRUE

----------
Tested on: IKZF1, ASS1 and SALL4 recruitment to CRBN
Assay: Recruitment assessment: recruitment of any tested substrate from among IKZF1, ASS1 and SALL4
Type: cell-based
Conditions: any tested substrate at any tested compound concentration
assay_metric: Recruitment Assessment

Example entries begin here.
I have this molecule here, O=C(O)CNc1cccc2c1C(=O)N(C1CCC(=O)NC1=O)C2 (centres unmarked) [C47998] , and I need its recorded Recruitment Assessment. TRUE

I have this molecule here, O=C1CCc2cc(C(=O)N3CCCc4ccccc43)cnc2N1 [C36126] , and I need its recorded Recruitment Assessment. FALSE

I have this molecule here, O=C1CCC(N2Cc3ccc(NC(=O)c4ccc5ccccc5n4)cc3C2=O)C(=O)N1 (centres unmarked) [C80392] , and I need its recorded Recruitment Assessment. FALSE

I have this molecule here, Nc1cccc2c1CN(C1CC(=O)NC(=O)C1)C2=O [C47927] , and I need its recorded Recruitment Assessment. TRUE

I have this molecule here, O=C1CCC(N2Cc3cccc(O)c3C2=O)C(=O)N1 (centres unmarked) [C28973] , and I need its recorded Recruitment Assessment. TRUE

More entries:
I have this molecule here, Nc1cccc2c1CCN(C1CCC(=O)NC1=O)C2=O (centres unmarked) [C47933] , and I need its recorded Recruitment Assessment. TRUE

I have this molecule here, O=C1CCC(N2Cc3ccc(NC(=O)c4cnc5nccn5c4)cc3C2=O)C(=O)N1 (centres unmarked) [C80396] , and I need its recorded Recruitment Assessment. TRUE

I have this molecule here, O=C1CCC(N2Cc3ccc(N4CCNC4=O)cc3C2=O)C(=O)N1 (centres unmarked) [C84971] , and I need its recorded Recruitment Assessment. FALSE
